Origin of values: patent US7691844B2

- target.or.test.system: human V2 receptor (Homo sapiens, UniProt P30518)
- Sequence (P30518 whole entry): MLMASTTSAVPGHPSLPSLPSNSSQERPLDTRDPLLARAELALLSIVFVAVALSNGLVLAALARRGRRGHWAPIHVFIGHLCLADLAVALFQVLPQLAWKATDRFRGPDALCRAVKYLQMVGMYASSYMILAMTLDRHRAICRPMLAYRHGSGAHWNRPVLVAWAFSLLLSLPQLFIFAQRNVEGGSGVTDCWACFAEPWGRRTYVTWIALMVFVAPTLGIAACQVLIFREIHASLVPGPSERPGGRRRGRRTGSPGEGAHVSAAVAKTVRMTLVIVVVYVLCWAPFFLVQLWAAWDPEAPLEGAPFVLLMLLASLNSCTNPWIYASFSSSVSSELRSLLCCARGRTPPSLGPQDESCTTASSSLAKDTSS
- assay.overview: In-vitro receptor binding assay (3H-arginine-8-vasopressin), V2
value.kind: IC50 (µM)
Hi! Could you send only the number? It should be in µM, unit omitted.

Dear colleague, please send me the reported IC50 for O=C(Nc1ccc(C(=O)N2CCC3(CCCCC3=O)Cc3ccccc32)cc1)c1ccccc1-c1ccccc1 (stereo not shown) [Compound 30] when you can.
0.033

Dear colleague, please send me the reported IC50 for Cc1ccc(F)cc1C(=O)Nc1ccc(C(=O)N2CCC3(C=C(C(=O)NCCN4CCCC4)CC3)Cc3ccccc32)cc1 (stereo not shown) when you can.
0.072

Dear colleague, please send me the reported IC50 for O=C(Nc1ccc(C(=O)N2CCC3(C=CCCC3)Cc3ccccc32)cc1)c1ccccc1-c1ccccc1 (stereo not shown) when you can.
0.19

Dear colleague, please send me the reported IC50 for Cc1ncccc1C(=O)Nc1ccc(C(=O)N2CCC3(C=CCCC3)Cc3ccccc32)cc1 (stereo not shown) when you can.
1
